Measured On: Neutrophil cytosol factor 1 (Homo sapiens) (UniProt P14598)
Sequence (P14598 whole entry, looked up): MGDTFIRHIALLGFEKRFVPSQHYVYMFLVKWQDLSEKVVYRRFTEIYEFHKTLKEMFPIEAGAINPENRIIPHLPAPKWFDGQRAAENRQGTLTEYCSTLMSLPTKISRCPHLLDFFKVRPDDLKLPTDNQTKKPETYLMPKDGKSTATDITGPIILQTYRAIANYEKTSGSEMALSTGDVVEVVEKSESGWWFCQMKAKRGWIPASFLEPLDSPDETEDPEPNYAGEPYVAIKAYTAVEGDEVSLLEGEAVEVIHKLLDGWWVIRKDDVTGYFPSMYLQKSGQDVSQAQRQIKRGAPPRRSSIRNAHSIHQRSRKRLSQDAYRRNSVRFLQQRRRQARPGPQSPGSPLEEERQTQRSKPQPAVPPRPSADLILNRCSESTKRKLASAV
Test Method Notes: blockers of ligand binding to p47phox – biochemical, NADPH oxidase regulatory subunit, fluorescence polarization, dose response (AID 1275)
Cond: p47phox binding inhibition
Active and inactive are the calls of the source. How the calls were made is not given here.
Measured Quantity: IC50

Below: 10 compounds and their reported IC50.
>>> observed_result("Cc1ccc(C(NC(=O)N2CCOCC2)=C(Cl)Cl)cc1F")
"> 50 µM (inactive)"
>>> observed_result("CCOc1ccc(N/C=C/C(=O)c2ccc(C)cc2)c([N+](=O)[O-])c1")
"> 50 µM (inactive)"
>>> observed_result("Cc1cccc(NC(=O)Cn2c(O)c(N=NC(=O)c3ccccc3O)c3ccccc32)c1")
"> 50 µM (inactive)"
>>> observed_result("N#Cc1ccc(N/N=C/c2cn(-c3ccccc3)nc2-c2ccccc2)c([N+](=O)[O-])c1")
"> 50 µM (inactive)"
>>> observed_result("O=C1Nc2ccccc2/C1=N/N=C/c1ccc(-c2ccc([N+](=O)[O-])cc2)o1")
"> 50 µM (inactive)"
>>> observed_result("O=C1CCCC(O)=C1N=Nc1ccc(C(=O)O)cc1")
"> 50 µM (inactive)"
>>> observed_result("O=C(N=Nc1c(O)[nH]c2ccc(Cl)cc12)c1cc(-c2cccs2)nc2ccccc12")
"> 50 µM (inactive)"
>>> observed_result("CCOC(=O)C1=C(COc2ccc(C)cc2)NC(=O)NC1c1cc(C)ccc1C (stereo unspecified)")
"> 50 µM (inactive)"
>>> observed_result("C/C(N)=C(/C#N)C(=O)CSc1nnc(-c2ccc3c(c2)OCO3)o1")
"> 50 µM (inactive)"
>>> observed_result("CC1(C)CC(=O)C2=C(C1)Nc1cc3c(cc1C2c1ccc2c(c1)OCO2)OCO3 (stereo unspecified)")
"> 50 µM (inactive)"

Query IC50 on Neutrophil cytosol factor 1 (Homo sapiens) (UniProt P14598) for CSc1sc(C)cc1C1C(C#N)=C(N)N(c2cccnc2)C2=C1C(=O)CCC2 (stereo unspecified) > 50 µM (inactive)

Reported IC50 for Neutrophil cytosol factor 1 (Homo sapiens) (UniProt P14598), given O=c1cnnc(N/N=C/c2c[nH]c3ccccc23)[nH]1 ? > 50 µM (inactive)

Identify the measured IC50 of Cc1cccc(N=Nc2c(C)c(C#N)c(O)[nH]c2=O)c1 for Neutrophil cytosol factor 1 (Homo sapiens) (UniProt P14598). > 50 µM (inactive)

---

Measured On: Neutrophil cytosol factor 1 (Homo sapiens)
Test Method Notes: blockers of ligand binding to p47phox – biochemical, NADPH oxidase regulatory subunit, fluorescence polarization, dose response (AID 1275)
Cond: p47phox binding inhibition
Activity calls are given as the source filed them. No rule for the calls is given here.
Returns: one label drawn from class 1 (active), class 0 (inactive)

# fetch the recorded call for CCOc1ccc2c(c1)C(c1cccs1)=NNC(c1cccnc1)=N2 here class 0

---

Measured On: Neutrophil cytosol factor 1 (Homo sapiens)
Test Method Notes: blockers of ligand binding to p47phox – biochemical, NADPH oxidase regulatory subunit, fluorescence polarization, dose response (AID 1275)
Cond: p47phox binding inhibition
The source made the active and inactive calls. The rule behind the calls is not given here.
// classify into Yes for active, No for inactive

>>> label("COc1nc(N/N=C/c2ccc(-c3cccc([N+](=O)[O-])c3)o2)nc(N2CCOCC2)n1")
"No"

Recorded call for CC(C)Cc1ccc(/C(=N/O)C(=O)O)s1 ? No

How did this test come out for CC(C)N1CC2=C(OC(N)=C(C#N)C2c2cccnc2)/C(=C/c2cccnc2)C1 (stereo not given) ? No

How did this test come out for CCOC(=O)C1=C(c2ccccc2)NC(N)=NC1c1ccc(OCc2ccc(C(=O)OC)cc2)cc1 (stereo not given) ? Yes

Given CN(C)CC(C)(C)CN=Cc1c(O)[nH]c2ccccc12 , state the outcome it received in this test. No

---

Measured On: Neutrophil cytosol factor 1 (Homo sapiens) (UniProt P14598)
Test Method Notes: blockers of ligand binding to p47phox – biochemical, NADPH oxidase regulatory subunit, fluorescence polarization, dose response (AID 1275)
Cond: p47phox binding inhibition
Active and inactive are the calls of the source. No rule for the calls is given here.
Write down the outcome that applies. Available outcomes: True for active, False for inactive

The following molecules have reported results that may help.
>>> label("C/C(=N\\Nc1ccc(S(N)(=O)=O)cc1[N+](=O)[O-])c1ccc2c(c1)OCO2")
"False"
>>> label("N=C1CCC(=N)c2c1c(O)c1ccccc1c2O")
"True"
>>> label("CCOc1ccc(N/C=C/C(=O)c2ccccc2)c([N+](=O)[O-])c1")
"False"
>>> label("O=C(N=Nc1c(O)[nH]c2ccc(Br)cc12)c1cc(-c2cccs2)nc2ccccc12")
"False"

Now let's try a different one.
What did the test return for N#CC(=C=[N-])c1nc2ccccc2nc1-[n+]1cccc(NC(=O)c2cccs2)c1 ? True

---

Measured On: Neutrophil cytosol factor 1 (Homo sapiens)
Test Method Notes: blockers of ligand binding to p47phox – biochemical, NADPH oxidase regulatory subunit, fluorescence polarization, dose response (AID 1275)
Cond: p47phox binding inhibition
The source made the active and inactive calls. How the calls were made is not given here.
Outcomes you can answer with include only these: true (1) for active, false (0) for inactive

Use these answered entries as a reference point.
>>> label("Oc1[nH]c(=S)sc1/C=C1\\C(c2ccccc2)=Nc2ccccc21")
"false (0)"
>>> label("Cc1ccc(/C=N/Nc2ccnc3cc(Cl)ccc23)c(C)c1")
"false (0)"
>>> label("C[c-]1[c-](C)[c-](C)[c-](C)[c-]1C.[Fe].c1cc2nccc(N3CCCC3)[c-]2c1 (stereo not drawn)")
"false (0)"
>>> label("COc1ccc(C2C(C#N)=C(N)Oc3cc4c(cc32)OCO4)cc1 (stereo not drawn)")
"false (0)"

What did this assay record as the result for COc1ccc(-c2cnnc(N/N=C/c3ccc(-c4ccc([N+](=O)[O-])cc4)o3)n2)cc1 ? false (0)

Check the results log: what was the call for CCOC(=O)C(=CNc1ccc(Oc2cccnc2)nc1)C(=O)OCC ? false (0)

How did this test come out for CC1=C(C#N)c2nc(N)c(C#N)c(C)c2/C1=C\c1ccc(-c2ccccc2C(=O)O)o1 ? true (1)

Recorded call for CC1CCCCN1C(=O)C12CCC(C)(/C(=N/O)C1)C2(C)C (stereo not drawn) ? false (0)

---

Measured On: Neutrophil cytosol factor 1 (Homo sapiens) (UniProt P14598)
Test Method Notes: blockers of ligand binding to p47phox – biochemical, NADPH oxidase regulatory subunit, fluorescence polarization, dose response (AID 1275)
Cond: p47phox binding inhibition
Active and inactive are the calls of the source. The rule behind the calls is not given here.
Hi! Could you answer with just one of these? label 1 (active), label 0 (inactive)

// below: answered compounds
>>> label("COc1ccc(-c2cn[nH]c2-c2ccc(OCc3ccc([N+](=O)[O-])cc3)cc2O)cc1")
"label 0"
>>> label("CCOC(=O)/C(C)=C1\\NC(C)(C)Cc2ccccc21")
"label 0"
>>> label("CC1=NN(c2ccccc2)C(=O)/C1=C/C=C/c1ccc(N(C)C)cc1")
"label 0"
>>> label("CCOC(=O)C1=C(c2ccccc2)NC(N)=NC1c1ccc(OCc2ccc(Cl)cc2)c(OC)c1 (stereo unspecified)")
"label 1"

# fetch the recorded call for Cn1c(O)c(/C=C2\N=c3ccccc3=C2CCNC(=S)NC2CC2)c(=O)n(C)c1=O here label 1

Would you mind telling me which call this test gave COC(=O)c1cc(C(=O)OC)cc(N2C(=O)CC(NNC(=O)c3ccc(C)cc3)C2=O)c1 (stereo unspecified) ? label 0

---

Measured On: Neutrophil cytosol factor 1 (Homo sapiens) (UniProt P14598)
Test Method Notes: blockers of ligand binding to p47phox – biochemical, NADPH oxidase regulatory subunit, fluorescence polarization, dose response (AID 1275)
Cond: p47phox binding inhibition
The source made the active and inactive calls. The rule behind the calls is not given here.
Examples of compounds with documented IC50 follow.

>>> observed_result("O=C(N=Nc1c(O)n(Cc2ccccc2)c2ccccc12)c1cc2ccccc2cc1O")
"> 50 µM (inactive)"

// next item, IC50 requested
Which value of IC50 has been reported for COc1ccc(N2C(=O)CNC2=S)cc1 in the records? > 50 µM (inactive)

---

Measured On: Neutrophil cytosol factor 1 (Homo sapiens) (UniProt P14598)
Test Method Notes: blockers of ligand binding to p47phox – biochemical, NADPH oxidase regulatory subunit, fluorescence polarization, dose response (AID 1275)
Cond: p47phox binding inhibition
Activity calls are given as the source filed them. No rule for the calls is given here.
In this exercise, the only acceptable responses are y for active, n for inactive

Completed entries (count: 5):
>>> label("Clc1ccc(/C=N/Nc2nc(Cl)nc3ccccc23)cc1")
"n"
>>> label("COc1cc(/C=N/NC(=O)c2ccc(CN3c4cccc5cccc(c45)S3(=O)=O)cc2)cc(OC)c1O")
"n"
>>> label("O=C(Cn1c(O)c(/C=C2\\C=Nc3ccc(Br)cc32)sc1=O)N1CCCC1")
"n"
>>> label("COc1ccc(C2C(C(=O)c3ccccc3)=C(C)Nc3nc4ccccc4n32)cc1OC (stereo not drawn)")
"n"
>>> label("Cc1cc2c(C)nc(N/N=C/c3ccc([N+](=O)[O-])cc3)nc2o1")
"n"

Could you please tell me the result logged for Cc1ccccc1NC(=O)Cn1c(O)c(N=NC(=O)c2ccccc2O)c2ccccc21 in this assay? n

Per the assay record, what outcome was assigned to Cc1ccc(-n2c(O)c(/C=N/Nc3ccccc3)c(=O)[nH]c2=O)cc1C ? n
